Data provenance: patent US20190309059A1

Molecular target: his-labeled human IL-13 (immunogen A) (human) (UniProt P35225)
Assay: ELISA, biotin-immunogen A; antibody at 13.33 nM
measurementKind: OD450 nm
Kindly provide the number alone.

Please review the following examples before continuing.
binder: 35E2C3 (lead antibody, mouse hybridoma) (antibody, V domains shown, Mouse monoclonal antibody purified from hybridoma supernatant on Protein G) VH: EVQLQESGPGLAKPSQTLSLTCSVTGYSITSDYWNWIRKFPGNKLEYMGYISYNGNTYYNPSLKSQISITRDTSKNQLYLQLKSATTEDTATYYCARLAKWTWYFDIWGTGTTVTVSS VL: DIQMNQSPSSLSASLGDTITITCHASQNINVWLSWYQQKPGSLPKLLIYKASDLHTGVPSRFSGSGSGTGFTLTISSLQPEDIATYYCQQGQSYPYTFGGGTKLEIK
measurementKind: OD450 nm
recordedMeasurement: 1.39
//
binder: c28A2E11 (mouse-human chimeric IL-13 antibody) (antibody, V domains shown) VH: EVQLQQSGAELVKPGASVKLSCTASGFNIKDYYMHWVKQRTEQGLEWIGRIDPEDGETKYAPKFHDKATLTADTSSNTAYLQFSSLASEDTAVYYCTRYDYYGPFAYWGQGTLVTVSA VL: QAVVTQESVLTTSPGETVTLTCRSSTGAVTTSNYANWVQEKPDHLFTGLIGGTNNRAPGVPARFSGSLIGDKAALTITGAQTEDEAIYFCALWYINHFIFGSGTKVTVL
measurementKind: OD450 nm
recordedMeasurement: 2.71

Prompt line: OD450 nm for c35E2C3 (mouse-human chimeric IL-13 antibody) (antibody, V domains shown) VH: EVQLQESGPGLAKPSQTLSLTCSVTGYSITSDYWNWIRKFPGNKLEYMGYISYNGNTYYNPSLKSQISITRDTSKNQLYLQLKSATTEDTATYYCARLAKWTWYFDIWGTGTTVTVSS VL: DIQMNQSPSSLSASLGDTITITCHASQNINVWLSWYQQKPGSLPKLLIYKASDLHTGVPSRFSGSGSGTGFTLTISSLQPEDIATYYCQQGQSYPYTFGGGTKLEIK ?
Response line: 2.59

Prompt line: Cool, now 28A2E11 (lead antibody, mouse hybridoma) (antibody, V domains shown, Mouse monoclonal antibody purified from hybridoma supernatant on Protein G) VH: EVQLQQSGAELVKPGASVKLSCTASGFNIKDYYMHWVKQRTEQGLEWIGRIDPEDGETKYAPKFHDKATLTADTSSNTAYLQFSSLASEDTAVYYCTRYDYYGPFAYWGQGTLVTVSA VL: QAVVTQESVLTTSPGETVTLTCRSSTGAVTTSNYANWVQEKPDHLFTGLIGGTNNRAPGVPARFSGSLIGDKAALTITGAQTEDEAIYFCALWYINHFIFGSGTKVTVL
Response line: 1.74
